Hey, just so you know, these numbers are from the supplement of paper PMC9170038.

Test system: MS2 coat protein
procedure-summary: apparent KD of MS2 coat protein; designed switch direction (-1 OFF switch, 1 ON switch): -1; higher = weaker reporter binding
reported-conditions: Eterna round: R95; input ligand: microRNA oligo, concentration not stated
readout-name: apparent KD of MS2 coat protein

[
  {
    "item-sequence": "GGGUGACAUGAGGAUCACCCAUGUCAGGAUAUGAUACUAUGUACUUCGGUACAUAGUAUCAGAAGGGACAUAAA [Ex1-3: 15] (puzzle: Exclusion 1)",
    "reading": "103 nM"
  },
  {
    "item-sequence": "CUCCUACAUGAGGAUCACCCAUGUCAGGAUAUCUCAGUGGCGCCUAAAUGUGCCACCCAGAGAAGGGACGUGCA [Zainceve] (puzzle: Exclusion 1)",
    "reading": "12.3 nM"
  },
  {
    "item-sequence": "CUAUUACGAGGAUAUGAUUUAAAUAACAUGAGGAUCACCCAUGUUUUUACGUUAUUAUGUUCAGAAGGCGUAUUGU [JR_E5_Sub025] (puzzle: Exclusion 5)",
    "reading": "28 nM"
  },
  {
    "item-sequence": "CGCUAGUCAGGAUAUACGAACAUGUCAAAAGACGUGAAGGGACAUGAGGAUCACCCAUGUAGAAGGGACUAGCU [salish99_ex2_r3_013] (puzzle: Exclusion 2)",
    "reading": "24.7 nM"
  },
  {
    "item-sequence": "CAUGCUUCGGCAUGUACAAGCUUUUUGCUCGUCUUAUUAACAUGAGGAUCACCCAUGUCAAAGAGACCUCAUGUAUU [Sensor v3 - turn-off variant 2 - 3] (puzzle: Sensor v3, turn-off variant 2)",
    "reading": "16 nM"
  },
  {
    "item-sequence": "UACUAAAAGGAGGAUAUCGUAUCGGAGACGAUACGAGAAGGCUUAACAUGAGGAUCACCCAUGUUCUUCAAUAU [Mat - Exclusion 6 - Eli Mod - D96] (puzzle: Exclusion 6)",
    "reading": "14.8 nM"
  },
  {
    "item-sequence": "CGGUACUGAGGAUAUACAUGAGGAUCACCCAUGUGUUCUAGCUAGCGUACUGGCUAUUGUAGAAGGCGGUGCUG [JL-ex3-3.24 Brourd mod] (puzzle: Exclusion 3)",
    "reading": "17.5 nM"
  },
  {
    "item-sequence": "CCCGUGUAAGGAUAUGACAAUGGUAUCUUCGGAUACCAUUGUCAGAAGGUACAUGAGGAUCACCCAUGUAACAC [Ex4-3: 14] (puzzle: Exclusion 4)",
    "reading": "28 nM"
  },
  {
    "item-sequence": "GUUUGACAUGAGGAUCACCCAUGUGAGGAUAUCGUCUGGUACGUGUUGGCUGGCAUCUCGAGAAGGCGCAUAGG [Exclusion 1 V57] (puzzle: Exclusion 1)",
    "reading": "49.7 nM"
  },
  {
    "item-sequence": "UUAUAAAGUGUGAGGAUAUGCUGGUCCAUAGAUCAGCAGAAGGCACAUGAGGAUCACCCAUGUAAUAUAUUUUU [Mat - Exclusion 4 - JL Mod - D43] (puzzle: Brourd's mod of Exclusion 4)",
    "reading": "27.2 nM"
  },
  {
    "item-sequence": "AGUAACUAUCACGAAAGUGAUAGUUACACAAGUAGUGAAACAUGAGGAUCACCCAUGUCCUCAUUUGCUCGUCUUAU [Sensor 3 - 33] (puzzle: Sensor v3, turn-off variant 2)",
    "reading": "168 nM"
  },
  {
    "item-sequence": "CUUUACAUAGGAUAUAGUUGCUUUUACAUGAGGAUCACCCAUGUCUCUCCUCUCUCUCUUCUAGAAGGAUGUUUCU [JR_E5_Sub010] (puzzle: Exclusion 5)",
    "reading": "56 nM"
  },
  {
    "item-sequence": "CUUUUGUGAGGAUAUCAGUUGUAAAUAAAUAAAAUUACUACUGAGAAGGCACAUGAGGAUCACCCAUGUUCCUC [salish99_ex3_r3_073] (puzzle: Exclusion 4)",
    "reading": "37.8 nM"
  },
  {
    "item-sequence": "ACCUCACAUGAGGAUCACCCAUGUUAGGAUAUCUCGACACUCCGCGGGCGGUAGCGUCAGAGAAGGAACGUGCU [Iszaxeza] (puzzle: Exclusion 1)",
    "reading": "23.1 nM"
  },
  {
    "item-sequence": "UAACCUCGCGUCAGGAUAUGCGAGGACUGUGACGUGCAGAAGGGACAUGAGGAUCACCCAUGUGAAAGAAUUAA [Acecequ] (puzzle: Brourd's mod of Exclusion 4)",
    "reading": "20.3 nM"
  },
  {
    "item-sequence": "AACCUCGGAGGAUAUACCUACCGAUUCACAAGUGUCACAUCACAUGAGGAUCACCCAUGUAGAAGGUCGAGGCG [Onorzais] (puzzle: Exclusion 2)",
    "reading": "30.1 nM"
  },
  {
    "item-sequence": "GGGAUGUCAGGAUAUCCAAAAGUCCGCCAGUACGGCAGACAGGAGAAGGGACAUGAGGAUCACCCAUGUAAAGA [Leinrete] (puzzle: Exclusion 4)",
    "reading": "32.6 nM"
  },
  {
    "item-sequence": "UCGAGUGGUUAGGAUAUCAUUGGUGCAUAUCAUUGAGAAGGAACUACAUGAGGAUCACCCAUGUGGCAGUGAUA [Abezaso] (puzzle: Exclusion 6)",
    "reading": "23.9 nM"
  },
  {
    "item-sequence": "GAAGAAGAGAGAAAAGAAAACAUGAGGAUCACCCAUGUGAGAAGAUGAGGGUGUAACAGGCUUUAUGCUCGUCUUAU (puzzle: Sensor v3, turn-off variant 1)",
    "reading": "120 nM"
  },
  {
    "item-sequence": "GAAAAGGUAGGAUAUACGAAAAUAAAGGGUAGAAAUAAAACACAUGAGGAUCACCCAUGUAGAAGGACCAAAAG [salish99_ex2_r3_096] (puzzle: Exclusion 2)",
    "reading": "23.3 nM"
  },
  {
    "item-sequence": "CCGCAAAAGGAGGAUAUCGUAUCGGAUACGAUACGAGAAGGCCUAACAUGAGGAUCACCCAUGUGUCCUAGCGG [Fiskers Ex 6 - 36] (puzzle: Exclusion 6)",
    "reading": "14.8 nM"
  }
]
